PROCEDURE TEXT: yeast display, Sf9 membrane polyspecificity reagent, FACS + sequencing; frameworks hold sequencing errors
MEASURED PROPERTY: polyreactivity (PSR sort gate)

Recorded polyreactivity (PSR sort gate), per entry:
[
  {
    "SEQUENCE CHAIN": "QVQLVESGGGLVQAGGSLRLSCGASGRIFAYYAMGWYRQAPGKERELVADISSGGNTYYADSVKGRFTISRDNAKNTVYLQMNSLKPEDTAVYYCAADIAWYTHDHRIFDYWGQGTQVTVSS",
    "RESULT": "low polyreactivity"
  },
  {
    "SEQUENCE CHAIN": "QVQLVESGGGLVQAGGSLRLSCAASGRIFTPYVLGWYRQAPGKERELVARISWTGSSTYYADSVKGRFTISRDNAKNTVYLQMNSLKPEDTAVYYCAKRLTRFYTRLEYWGQGTQVTVSS",
    "RESULT": "low polyreactivity"
  },
  {
    "SEQUENCE CHAIN": "QVQLVESGGGLVQAGGSLRLSCAASGFTLYVNAMGWYRHAPGKERELVAAISRGTTTYYADSVKGRFTISRDNAKNTVYLQMNSLKPEDTAVYYCAGETGHPYEEYDYWGQGTQVTVSS",
    "RESULT": "high polyreactivity"
  },
  {
    "SEQUENCE CHAIN": "QVQLVESGGGLVQAGGSLRLSCAASGIIFYTYVMGWYRQAPGKEREFVAGISTSGGRTDYADSVKGRFTISRDNAKNTVYLQMNSLKPEDTAVYYCNADYWQWYSYWYDYWGQGTQVTVSS",
    "RESULT": "high polyreactivity"
  },
  {
    "SEQUENCE CHAIN": "QVQLVESGGGLVQAGGSLRLSCDASGSIFDGYGMGWYRQAPGKERELVASITCNDGSTYYADSVKGRFTISRDNANNTFYLQMNSLKPEDTAVYYCASDQWGYEYDYWGQGTQVTVSS",
    "RESULT": "low polyreactivity"
  }
]

Ask | Identify measured polyreactivity (PSR sort gate) associated with `QVQLEESGGGLVQAGGSLRLSCAASGIIFATYAMGWYTQAPGKDRELVAAISSGGRTYYADSVKGRFTISRDNAKNTVYFQMNSLKPEDTAVYYCAAKSGGRSSLYNYWGQGTQVTVSS`
Reply | high polyreactivity

Ask | Using the record for `QVQLVESGGGLVQAGGSLRLSCAASGSIFLYNALGWYRQAPGKERELVAAIYKSGGSTYYADSVKGRFTISRDNEKNSVYLQMNSLKPEDTAVYYCAAGYGSRIRYGSEYDYWGQGTQVTVSS` , state its measured polyreactivity (PSR sort gate).
Reply | low polyreactivity

Ask | Tell me its polyreactivity (PSR sort gate) given `QVQLVESGGGLVQAGGSLRLSCAASGFIFLSNGMGWYRPAPGKERELVAAITSGGNTNYADSVTGRFTISRDNAKTTVYLQMNSLKPEDTAVYYCAAYWIFITYFGYYSEYAYWGQGTQVTVSS` as the entry.
Reply | low polyreactivity

Ask | Please supply the value of reported polyreactivity (PSR sort gate) for the item `QVQLVESGGGLVQAGGSLRLSSAASGLTFQEYAMGWYRQAPGKESELVAAISWSGGSTYYADSVKGRFTISRDNAKNTVYLQMNSLKPEDTAVYYCAAEAYEEYITGWYAYDYWGQGTQVTVSS`
Reply | high polyreactivity

Ask | Answer with reported polyreactivity (PSR sort gate) of `QVQLVESGGGLVQAGGSLRLSCDASGSPFEWYGMGWYRQAPGKERELVDAITSGGSTNYADSVKGRFTISRDNAKNTVYLQMNCLKPEVPAVYYCNAEYKPYHYYKAWVYTYDYGYWGQGTQVTVSS`
Reply | low polyreactivity

Ask | # return recorded polyreactivity (PSR sort gate) for entry `QVQLVESGVGLVQPGGSLRLIRAAYGRILRDYDMGWYSTAPRKERELVAAINWSDGSTYYADSVKGRFTISRDNAKYTVYLQMNCQKPVDTAVYYCAAEPYVFGLSSKRFWYNYWGQGTEVTVSS`
Reply | low polyreactivity

Ask | Give the reported value of polyreactivity (PSR sort gate) for this record: `QVQLVESGGGLVQAGGSLRLSCAASGSTFPYNAMGWYRQAPGKERELVAVITTVGSTYYADSVKGRFTISRDNAKNTVYLQMNSLKPEDTAVYYCAAANTQSPGYDYWGQGTQVTVSS`
Reply | low polyreactivity
